attribute.measured: Ki (nM)
The figure you give is taken to be in nM; do not add the unit.

// map CCN(CCCNC(=O)c1ccc(-c2ccncc2)cc1)CCNC(=O)c1cc(I)cc(OC)c1OC [HY-3-24] to recorded Ki (system: UniProt P08912)
Sequence (P08912 whole entry): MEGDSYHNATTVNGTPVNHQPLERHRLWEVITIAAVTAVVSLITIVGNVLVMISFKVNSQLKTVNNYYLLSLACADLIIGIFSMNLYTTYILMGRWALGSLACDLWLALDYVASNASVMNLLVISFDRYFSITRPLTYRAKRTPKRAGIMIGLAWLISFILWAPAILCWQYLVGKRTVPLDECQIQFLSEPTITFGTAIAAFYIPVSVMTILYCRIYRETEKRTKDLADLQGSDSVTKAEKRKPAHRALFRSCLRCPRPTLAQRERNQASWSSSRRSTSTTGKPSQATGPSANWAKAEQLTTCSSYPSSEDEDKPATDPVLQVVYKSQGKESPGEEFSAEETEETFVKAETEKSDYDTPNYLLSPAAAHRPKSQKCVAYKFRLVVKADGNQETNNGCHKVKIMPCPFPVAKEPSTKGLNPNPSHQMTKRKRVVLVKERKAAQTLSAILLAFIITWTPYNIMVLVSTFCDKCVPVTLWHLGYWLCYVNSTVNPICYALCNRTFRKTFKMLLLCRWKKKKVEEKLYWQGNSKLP
118

* * *

- target.system: human D4 (Homo sapiens, UniProt P21917)
- Sequence (P21917 1-419): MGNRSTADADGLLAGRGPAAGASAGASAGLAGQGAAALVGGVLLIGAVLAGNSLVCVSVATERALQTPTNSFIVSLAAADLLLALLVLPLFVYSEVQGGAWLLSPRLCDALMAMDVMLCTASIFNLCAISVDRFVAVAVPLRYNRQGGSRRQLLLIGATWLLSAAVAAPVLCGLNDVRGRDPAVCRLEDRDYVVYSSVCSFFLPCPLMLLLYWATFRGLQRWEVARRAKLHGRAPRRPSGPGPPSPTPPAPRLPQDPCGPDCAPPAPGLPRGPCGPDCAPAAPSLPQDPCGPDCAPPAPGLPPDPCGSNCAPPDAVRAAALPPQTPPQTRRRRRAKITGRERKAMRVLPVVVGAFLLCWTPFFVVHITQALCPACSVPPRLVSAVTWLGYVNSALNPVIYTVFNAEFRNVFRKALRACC
pKi: −log10 of the molar value.
attribute.measured: pKi

Please tell me: pKi of CCN(CCCNC(=O)c1ccc(-c2ccncc2)cc1)CCNC(=O)c1cc(I)cc(OC)c1OC , system human D4 (Homo sapiens, UniProt P21917)?
< 6.00

* * *

attribute.measured: Ki (nM)
The response must be a number in nM with no trailing unit.

Item CCN(CCCNC(=O)c1ccc(-c2ccncc2)cc1)CCNC(=O)c1cc(I)cc(OC)c1OC with serotonin 5-HT2B (Homo sapiens) - Ki?
38

* * *

- target.system: serotonin 5-HT2C (Homo sapiens, UniProt P28335)
- Sequence (P28335 33-458): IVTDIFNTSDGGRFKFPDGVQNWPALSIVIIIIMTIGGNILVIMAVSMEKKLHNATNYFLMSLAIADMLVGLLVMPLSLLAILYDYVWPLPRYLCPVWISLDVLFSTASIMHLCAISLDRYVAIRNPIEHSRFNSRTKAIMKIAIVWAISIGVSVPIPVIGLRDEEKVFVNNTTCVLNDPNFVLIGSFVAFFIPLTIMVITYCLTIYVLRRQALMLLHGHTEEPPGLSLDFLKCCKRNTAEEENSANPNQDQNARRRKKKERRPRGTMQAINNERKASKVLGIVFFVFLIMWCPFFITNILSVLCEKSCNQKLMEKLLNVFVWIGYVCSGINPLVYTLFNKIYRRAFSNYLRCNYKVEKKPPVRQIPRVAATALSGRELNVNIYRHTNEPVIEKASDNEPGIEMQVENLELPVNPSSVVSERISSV
attribute.measured: pKi
Formally, pKi is defined as -log10 of the concentration c, with c in mol/L.

Tell me the measured pKi of CCN(CCCNC(=O)c1ccc(-c2ccncc2)cc1)CCNC(=O)c1cc(I)cc(OC)c1OC , please.
6.21

* * *

- target.system: D3R (Rattus norvegicus, UniProt P19020)
- Construct: The ventral striatum was isolated by dissection on ice; tissue Innovative research, Inc; host or cells: Sprague–Dawley rat brain: ventral striatal homogenates; frozen brain sections
- Sequence (P19020 whole entry): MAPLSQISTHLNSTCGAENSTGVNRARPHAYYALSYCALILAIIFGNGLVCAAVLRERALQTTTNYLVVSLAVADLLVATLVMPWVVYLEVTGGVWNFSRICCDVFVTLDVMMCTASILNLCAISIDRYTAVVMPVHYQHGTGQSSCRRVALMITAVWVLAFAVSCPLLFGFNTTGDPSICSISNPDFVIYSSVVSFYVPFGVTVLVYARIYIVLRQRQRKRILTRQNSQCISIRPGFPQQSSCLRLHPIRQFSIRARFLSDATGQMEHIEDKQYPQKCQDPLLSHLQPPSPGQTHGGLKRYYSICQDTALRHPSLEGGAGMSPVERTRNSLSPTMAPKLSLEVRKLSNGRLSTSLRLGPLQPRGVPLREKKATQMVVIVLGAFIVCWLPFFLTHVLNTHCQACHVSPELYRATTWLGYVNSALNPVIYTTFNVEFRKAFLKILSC
- measurement.protocol: Competition binding study of [125I]HY-3-24 in rat ventral striatal membranes
- condition.description: rat ventral striatal homogenates, 0.2–0.3 nM [125I]HY-3-24, RT 60 min, mean ± SD of three experiments; read-out: Ki for inhibiting [125I]HY-3-24 binding
attribute.measured: pKi
# log scale: pKi equals minus log10 of the concentration in mol/L

Fill in the blank: the reported pKi of CN1CCc2cc(Cl)c(O)cc2[C@@H](c2ccccc2)C1 is ____.
6.67

Name the reported pKi value associated with the compound CCN1CCC[C@H]1CNC(=O)c1c(O)c(Cl)cc(Cl)c1OC [Raclopride]
8.60

If you can, please state the reported pKi value of CCCN1CCO[C@@H]2c3cc(O)ccc3CC[C@H]21 [(+)-PHNO] .
8.76

Returns the measured pKi for the input compound. Input: CCCN1CCO[C@@H]2c3cc(O)ccc3OC[C@H]21
8.12
